Entries and their TGI
Test system: NCI-H23 lung
Test: NCI tumour cell line growth inhibition, 48 h

{"Molecule": "CC(C)C(NCc1c2ccccc2nc2ccccc12)C(=O)O (stereo not given)", "TGI": "> 100 µM"}
{"Molecule": "COc1ccc(C2C3=C(COC3=O)N(CCO)c3cc4c(cc32)CCC4)cc1OC (stereo not given)", "TGI": "> 50 µM"}
{"Molecule": "O=C(N(C1=CCCC1)N(c1ccccc1)c1ccccc1)C(F)(F)F", "TGI": "> 100 µM"}
{"Molecule": "NC(=O)c1nnc2c(F)cccc2c1N", "TGI": "> 100 µM"}
{"Molecule": "O=C(O)CSc1nnc(COc2ccccc2)n1-c1ccccc1", "TGI": "> 100 µM"}

* * *

System: K-562 leukemia
Test: NCI tumour cell line growth inhibition, 48 h

{"Compound": "O=C(c1nc2ccccc2[nH]1)C1C(c2cccc([N+](=O)[O-])c2)C2CC3CCCCC3N2[C@@]12C(=O)Nc1cc(Cl)ccc12 (stereo partly drawn)", "TGI": "> 100 µM"}
{"Compound": "CN1CCN(C2CC(=O)c3c(Cl)sc(Cl)c32)CC1 (stereo not drawn)", "TGI": "> 100 µM"}
{"Compound": "COc1cc2c3c4[n+](cc2c(OC)c1OC)CCC4CCC3 (stereo not drawn)", "TGI": "> 100 µM"}

* * *

Test system: RPMI-8226 leukemia
Assay: NCI tumour cell line growth inhibition, 48 h

{"Compound String": "C(=N\\Nc1nnc(-c2nnc(N/N=C/c3ccccc3)o2)o1)/c1ccccc1", "TGI": "> 10 µM"}
{"Compound String": "Cn1cc(C2=C(c3cn(C)c4cc(Cl)ccc34)C(=O)NC2=O)c2ccccc21", "TGI": "> 15.2 µM"}
{"Compound String": "[O-][n+]1cc(SCc2ccccc2)ncc1SCc1ccccc1", "TGI": "> 10 µM"}

* * *

Entries and their TGI
Test system: HCC-2998 colon
Assay: NCI tumour cell line growth inhibition, 48 h

{"Molecule": "Nc1ccc(Sc2ccc3c4c2cccc4c(=O)n2c4ccccc4nc32)cc1", "TGI": "> 100 µM"}
{"Molecule": "CCOc1c(Cc2ccccc2)c(=O)n2c3ccccc3n3c(=O)n(C)c(=O)c1c23", "TGI": "> 100 µM"}
{"Molecule": "CCN(CC)CCC1(C(=O)OC)SCCc2ccc(C)cc21 (stereo unspecified)", "TGI": "> 100 µM"}
{"Molecule": "CCn1c(-c2nonc2N)nc2c(C#CC(C)(C)O)ncc(OCC3CCNCC3)c21", "TGI": "> 25 µM"}
{"Molecule": "C[C@@H]1CC[C@H]2C(CN(C)CC3=C(C(F)(F)F)O[C@@H]4O[C@@]5(C)CC[C@H]6[C@H](C)CC[C@@H]3[C@@]46OO5)=C(C(F)(F)F)O[C@@H]3O[C@@]4(C)CC[C@@H]1[C@]32OO4", "TGI": "> 59.5 µM"}
{"Molecule": "CCC(C)Cn1c(C)nc2c1C(=O)c1ccccc1C2=O (stereo unspecified)", "TGI": "> 100 µM"}
{"Molecule": "O=C(OCC(OC(=O)c1ccccc1)C1CC(C(O)C2CCCCC2)C(=O)O1)c1ccccc1 (stereo unspecified)", "TGI": "> 100 µM"}
{"Molecule": "CCOC(=O)Nc1ccc2nc(Sc3ccc(Cl)cc3)sc2c1", "TGI": "> 71.4 µM"}
{"Molecule": "CCN(CC)c1ccc(/C=C2/NC(=O)NC2=O)cc1", "TGI": "> 100 µM"}
{"Molecule": "CCc1cc(Nc2nccc(-c3c(-c4ccc(OC)c(C(=O)Nc5c(F)cccc5F)c4)nc4ccccn34)n2)c(OC)cc1N1CCC(N2CCN(S(C)(=O)=O)CC2)CC1", "TGI": "> 100 µM"}
{"Molecule": "O=C1/C(=C/c2ccc(Cl)cc2)COc2ccc(Br)cc21", "TGI": "> 100 µM"}

* * *

System: NCI-H460 lung
Assay: NCI tumour cell line growth inhibition, 48 h
Quantity Name: TGI

{"Compound": "CSC(=N/N=C(\\C)c1ccc(S(=O)(=O)N(C)c2ccccc2)cc1)SC", "Quantity Name": "TGI", "Value": "> 100 µM"}
{"Compound": "Cc1nc2cccc(F)c2c(=O)n1-c1nnc(C2CC2)s1", "Quantity Name": "TGI", "Value": "> 10 µM"}
{"Compound": "COC(=O)[C@@H](C)C[C@H](Cc1ccccc1)NC(=O)c1csc([C@@H](C[C@H](C(C)C)N(C)C(=O)[C@@H](NC(=O)CN(C)C)C2CC2)OC(C)=O)n1", "Quantity Name": "TGI", "Value": "> 16.5 µM"}
{"Compound": "CN1CCN(C2CC(=O)c3c(Cl)sc(Cl)c32)CC1 (stereo unspecified)", "Quantity Name": "TGI", "Value": "> 75.3 µM"}
{"Compound": "O=C1CCC(=O)C(C(=O)CCC(=O)Nc2ccc(Cl)cc2)C1 (stereo unspecified)", "Quantity Name": "TGI", "Value": "> 100 µM"}
{"Compound": "S=C1NNC(=S)NN1", "Quantity Name": "TGI", "Value": "> 1 µM"}

* * *

Test system: HCT-15 colon
Assay: NCI tumour cell line growth inhibition, 48 h

{"Compound": "Nc1ccc(C(=O)N/C(=C\\c2ccc3c(c2)OCO3)c2nc3ccc4c(c3[nH]2)C(=O)c2ccccc2C4=O)cc1", "Assay Target": "HCT-15 colon", "TGI": "> 100 µM"}
{"Compound": "Cc1cc(N)c2cc(NC(=O)CCCCCCCCC(=O)Nc3ccc4nc(C)cc(N)c4c3)ccc2n1", "Assay Target": "HCT-15 colon", "TGI": "> 100 µM"}
{"Compound": "Cn1cc(C2=C(c3cn(C)c4cc(Cl)ccc34)C(=O)NC2=O)c2ccccc21", "Assay Target": "HCT-15 colon", "TGI": "> 25 µM"}
{"Compound": "O=C1NC(=Nc2ccccc2Cl)SC1C(=O)Nc1ccc([N+](=O)[O-])cc1[N+](=O)[O-] (stereo not given)", "Assay Target": "HCT-15 colon", "TGI": "> 100 µM"}
{"Compound": "CC(=O)c1nc(C#N)c(N)o1", "Assay Target": "HCT-15 colon", "TGI": "> 100 µM"}
{"Compound": "Fc1ccc(-c2ncn(C3CCNCC3)c2-c2ccnc(Oc3ccc(Oc4ccccc4)cc3)n2)cc1", "Assay Target": "HCT-15 colon", "TGI": "7.29 µM"}
{"Compound": "COc1ccc(Nc2ccnc3cc(Cl)ccc23)cc1CN(CCCl)CCCl", "Assay Target": "HCT-15 colon", "TGI": "6.44 µM"}
{"Compound": "N#CCCCCCn1c2ccccc2c2c3c(c4c5ccccc5[nH]c4c21)C(=O)N(O)C3=O", "Assay Target": "HCT-15 colon", "TGI": "7.82 µM"}
{"Compound": "C(=N\\Nc1nnc(-c2nnc(N/N=C/c3ccccc3)o2)o1)/c1ccccc1", "Assay Target": "HCT-15 colon", "TGI": "> 10 µM"}
{"Compound": "Fc1sc2c(c1F)C1CCC2C1 (stereo not given)", "Assay Target": "HCT-15 colon", "TGI": "> 100 µM"}
{"Compound": "O=C1CSC2=NC3=C(COC/C3=C\\c3ccc(F)cc3)C(c3ccc(F)cc3)N12 (stereo not given)", "Assay Target": "HCT-15 colon", "TGI": "> 100 µM"}
{"Compound": "COc1cc(OC)cc(-c2nc3ccccc3c(=O)[nH]2)c1", "Assay Target": "HCT-15 colon", "TGI": "> 100 µM"}
{"Compound": "C=C1C(=O)O[C@H]2[C@H]1CC/C(COC(=O)c1ccc(Br)cc1)=C\\CC[C@@]1(C)O[C@@H]21", "Assay Target": "HCT-15 colon", "TGI": "3.06 µM"}
{"Compound": "CN1CCN(Cc2ccc(NC(=O)c3cncc(C#Cc4cncc5[nH]ncc45)c3)cc2C(F)(F)F)CC1", "Assay Target": "HCT-15 colon", "TGI": "6.14 µM"}
{"Compound": "O=C(CN1CCN(c2cc3c(cc2F)c(=O)c(C(=O)O)cn3C2CC2)CC1)Nc1ccc(C(=O)/C=C/c2ccccc2)cc1", "Assay Target": "HCT-15 colon", "TGI": "> 100 µM"}
{"Compound": "CC1CC(=O)CC[C@@H]1OCc1ccccc1 (stereo not given in full)", "Assay Target": "HCT-15 colon", "TGI": "> 100 µM"}
{"Compound": "COC1OC2COC(c3ccccc3)OC2C(OC(=S)c2ccccc2)C1O (stereo not given)", "Assay Target": "HCT-15 colon", "TGI": "> 100 µM"}
{"Compound": "CC(=O)OC1CC2C(C)(C)C(=O)C=C[C@]2(C)C2CCC3(C)C(=CCC3[C@H](CO)C[C@H](O)C(=O)C(C)(C)O)[C@]12C (stereo not given in full)", "Assay Target": "HCT-15 colon", "TGI": "40.4 µM"}
{"Compound": "C[C@@H]1CC[C@H]2C(CN(C)CC3=C(C(F)(F)F)O[C@@H]4O[C@@]5(C)CC[C@H]6[C@H](C)CC[C@@H]3[C@@]46OO5)=C(C(F)(F)F)O[C@@H]3O[C@@]4(C)CC[C@@H]1[C@]32OO4", "Assay Target": "HCT-15 colon", "TGI": "> 100 µM"}
{"Compound": "O=C1c2ccccc2-c2c1c1ccccc1c(=O)n2CCCNCCO", "Assay Target": "HCT-15 colon", "TGI": "6.13 µM"}
